Data origin, for the record: ChEMBL document CHEMBL1155996

- assay explanation: Solubility of compound at pH 4.5 by high throughput screening
- Assay type: physicochemical
- condition parameters: buffer
reported metric: solubility (µg/mL)

Check out these entries, answers already filled in.
INSERT INTO assay_data (compound, reported_metric, unit_of_measurement, observed_value) VALUES
  ('CCOc1ccc(-c2ccc(C(=O)N[C@H](C(=O)NC)C3CCCCC3)o2)nc1', 'solubility', 'µg/mL', 33),
  ('CNC(=O)[C@@H](NC(=O)c1ccc(-c2ccc(NC(C)=O)cc2)o1)C1CCCCC1', 'solubility', 'µg/mL', 15),
  ('CNC(=O)[C@@H](NC(=O)c1ccc(-c2ccc(OCc3ccn[nH]3)cn2)o1)C1CCCCC1', 'solubility', 'µg/mL', 39);

[a] CNC(=O)[C@@H](NC(=O)c1ccc(-c2ccc(NS(C)(=O)=O)cc2)o1)C1CCCCC1
[b] CNC(=O)[C@@H](NC(=O)c1ccc(-c2ccc(OCc3cc(C)n[nH]3)cn2)o1)C1CCCCC1
input: From the items above, decide which of a and b has the lower solubility reading. Let me know the label of the one you choose.
output: b

---

- assay explanation: Solubility of compound at pH 7.4 by high throughput screening
- Assay type: physicochemical
- condition parameters: buffer
reported metric: solubility (µg/mL)

Completed entries (count: 2):
INSERT INTO assay_data (compound, unit_of_measurement, observed_value) VALUES
  ('CNC(=O)[C@@H](NC(=O)c1ccc(-c2ccc(OCc3cc4ccccc4o3)cn2)o1)C1CCCCC1', 'µg/mL', 0.1),
  ('CNC(=O)c1ccc(-c2ccc(C(=O)N[C@H](C(=O)NC)C3CCCCC3)o2)cc1', 'µg/mL', 17);

[I] CNC(=O)[C@@H](NC(=O)c1ccc(-c2ccc(NC(C)=O)cc2)o1)C1CCCCC1
[II] CNC(=O)[C@@H](NC(=O)c1ccc(-c2ccc(Cl)cn2)o1)C1CCCCC1
input: Field: entry with larger solubility (options I / II ). // caller expects the label of the chosen entry
output: II
(II: 37 µg/mL, I: 17 µg/mL)

---

- assay explanation: Solubility of compound at pH 4.5 by high throughput screening
- Assay type: physicochemical
- condition parameters: buffer
reported metric: solubility (µg/mL)

[I] CNC(=O)[C@@H](NC(=O)c1ccc(-c2ccc(Cl)cn2)o1)C1CCCCC1
[II] CNC(=O)[C@@H](NC(=O)c1ccc(-c2ccc(OCc3cccc(C)n3)cn2)o1)C1CCCCC1
input: Compare solubility: is it lower for I or for II ? Lab log: write the label of the selected item as the result.
output: II

---

- assay explanation: Solubility of compound at pH 7.4 by high throughput screening
- Type: physicochemical
- condition parameters: buffer
reported metric: solubility (µg/mL)

Some solved entries appear below for comparison.
INSERT INTO measurements (compound, reported_metric, observed_value) VALUES
  ('CNC(=O)[C@@H](NC(=O)c1ccc(-c2ccc(NS(C)(=O)=O)cc2)o1)C1CCCCC1', 'solubility', 61),
  ('CNC(=O)[C@@H](NC(=O)c1ccc(-c2ccc(OCc3ccn[nH]3)cn2)o1)C1CCCCC1', 'solubility', 43),
  ('CNC(=O)[C@@H](NC(=O)c1ccc(-c2ccc(OC)cc2)o1)C1CCCCC1', 'solubility', 1.6);

[1] CNC(=O)[C@@H](NC(=O)c1ccc(-c2ccc(Cl)cc2)o1)C1CCCCC1
[2] CNC(=O)[C@@H](NC(=O)c1ccc(-c2ccc(OCc3cc(C)n[nH]3)cn2)o1)C1CCCCC1
[3] CNC(=O)[C@@H](NC(=O)c1ccc(-c2ccc(S(=O)(=O)NC)cc2)o1)C1CCCCC1
input: In this exercise, place the 3 compounds in ascending sequence of their recorded solubility. Output the labels ranked as instructed.
output: 1, 2, 3

---

- assay explanation: Solubility of compound at pH 4.5 by high throughput screening
- Format: physicochemical
- condition parameters: buffer
reported metric: solubility (µg/mL)

INSERT INTO assay_data (compound, reported_metric, observed_value) VALUES
  ('CNC(=O)[C@@H](NC(=O)c1ccc(-c2ccc(Cl)cc2)o1)C1CCCCC1', 'solubility', 1.5);

[a] CNC(=O)[C@@H](NC(=O)c1ccc(-c2ccc(S(=O)(=O)NC)cc2)o1)C1CCCCC1
[b] CNC(=O)[C@@H](NC(=O)c1ccc(-c2ccc(OC)cc2)o1)C1CCCCC1
input: Smaller solubility value? Options are a and b Your answer should be the label of the entry you select.
output: b

---

Property: solubility; scope: individual compounds
- assay explanation: Solubility of compound at pH 7.4 by high throughput screening
- Assay type: physicochemical
- condition parameters: buffer

INSERT INTO measurements (compound, observed_value) VALUES
  ('CNC(=O)[C@@H](NC(=O)c1ccc(-c2ccc(OCc3cc(C)n(C)n3)cn2)o1)C1CCCCC1', '> 57 µg/mL'),
  ('CCOc1ccc(-c2ccc(C(=O)N[C@H](C(=O)NC)C3CCCCC3)o2)nc1', '> 49 µg/mL');

input: What value of solubility has been recorded for this entry: "CNC(=O)[C@@H](NC(=O)c1ccc(-c2ccc(OCc3cccc(C)n3)cn2)o1)C1CCCCC1"
output: 3.4 µg/mL
